experiment notes: Mouse study on analog 115: pharmacokinetic profile and clinical observations
assay setup: female, CD-1, mouse, plasma, po, 10 mg/kg
reported property: concentration at 7 h

stdin: Which concentration at 7 h value is on record for CCc1nc(N)nc(N)c1-c1cccc(C(F)(F)F)c1 ?
stdout: ~450 ng/mL

---

experiment notes: Mouse study on analog 115: pharmacokinetic profile and clinical observations
assay setup: female, CD-1, mouse, plasma, iv, 2 mg/kg
Description: Two tests were conducted, on for a single oral dose of 10 mg/kg and for an intravenous 2 mg/kg dose in female CD-1 mice (n=3 for each group). Mouse study with Analog 115: All mouse work was performed by Paraza Pharma, Inc. All pertinent information and methods are listed in FIG. 17.
reported property: concentration at 7 h (ng/mL)
# value in ng/mL; strip the unit string

stdin: Item CCc1nc(N)nc(N)c1-c1cccc(C(F)(F)F)c1 [WCDD115] has what recorded concentration at 7 h?
stdout: 76.4
